Give pIC50 for every item shown.
system: Carnitine O-palmitoyltransferase 1, liver isoform (Rattus norvegicus)
Sequence (P32198 whole entry, canonical isoform): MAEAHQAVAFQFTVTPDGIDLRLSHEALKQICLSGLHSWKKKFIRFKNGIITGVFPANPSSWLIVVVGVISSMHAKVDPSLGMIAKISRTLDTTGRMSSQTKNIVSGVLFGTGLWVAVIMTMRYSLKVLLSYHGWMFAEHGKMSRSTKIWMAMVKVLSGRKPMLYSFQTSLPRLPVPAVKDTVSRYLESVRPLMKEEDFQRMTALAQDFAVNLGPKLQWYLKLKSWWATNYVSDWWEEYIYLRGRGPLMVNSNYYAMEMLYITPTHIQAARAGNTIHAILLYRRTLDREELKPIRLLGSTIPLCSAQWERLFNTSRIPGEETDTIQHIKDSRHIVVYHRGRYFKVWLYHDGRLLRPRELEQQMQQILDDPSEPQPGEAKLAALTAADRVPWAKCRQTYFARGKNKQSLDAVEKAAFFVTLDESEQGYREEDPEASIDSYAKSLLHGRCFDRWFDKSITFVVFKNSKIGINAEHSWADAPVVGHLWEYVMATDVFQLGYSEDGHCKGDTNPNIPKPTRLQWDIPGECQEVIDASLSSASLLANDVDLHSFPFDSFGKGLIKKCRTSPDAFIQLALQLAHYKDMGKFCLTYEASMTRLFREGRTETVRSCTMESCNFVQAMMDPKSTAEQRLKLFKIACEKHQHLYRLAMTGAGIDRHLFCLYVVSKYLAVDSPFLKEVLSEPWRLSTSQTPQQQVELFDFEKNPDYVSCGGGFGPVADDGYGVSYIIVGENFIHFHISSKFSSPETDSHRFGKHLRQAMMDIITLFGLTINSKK
assay.summary: SUPPLEMENTARY: Inhibition of Carnitine palmitoyltransferase 1, liver isoform
On this scale, pIC50 is minus log10 of a concentration expressed in M (mol/L).

// query What does the data say about its pIC50? Entry: `COc1ccc(Cl)cc1S(=O)(=O)Nc1cccc(C(=O)Nc2ccc(-c3nnn[nH]3)cc2)c1`
// result 7.84

// query What does the data say about its pIC50? Entry: `O=C1COc2ccc(-c3nc([C@H]4CCCCN4C(=O)COc4ccccc4)no3)cc2N1`
// result 7.05

// query What does the data say about its pIC50? Entry: `COc1ccc(Cl)cc1S(=O)(=O)N1COCc2ccc(C(=O)Nc3ccc(CC(=O)O)cc3)cc21`
// result 6.32

// query What does the data say about its pIC50? Entry: `O=C(O)c1cncc(-c2noc([C@H]3CCCCN3C(=O)COc3ccccc3)n2)c1`
// result 5.35

// query What does the data say about its pIC50? Entry: `COc1ccc(Cl)cc1S(=O)(=O)c1nn(C)c2ccc(C(=O)Nc3ccc(C(=O)O)cc3)cc12`
// result 7.19

====

system: Carnitine O-palmitoyltransferase 2, mitochondrial (Rattus norvegicus, UniProt P18886)
Sequence (P18886 whole entry): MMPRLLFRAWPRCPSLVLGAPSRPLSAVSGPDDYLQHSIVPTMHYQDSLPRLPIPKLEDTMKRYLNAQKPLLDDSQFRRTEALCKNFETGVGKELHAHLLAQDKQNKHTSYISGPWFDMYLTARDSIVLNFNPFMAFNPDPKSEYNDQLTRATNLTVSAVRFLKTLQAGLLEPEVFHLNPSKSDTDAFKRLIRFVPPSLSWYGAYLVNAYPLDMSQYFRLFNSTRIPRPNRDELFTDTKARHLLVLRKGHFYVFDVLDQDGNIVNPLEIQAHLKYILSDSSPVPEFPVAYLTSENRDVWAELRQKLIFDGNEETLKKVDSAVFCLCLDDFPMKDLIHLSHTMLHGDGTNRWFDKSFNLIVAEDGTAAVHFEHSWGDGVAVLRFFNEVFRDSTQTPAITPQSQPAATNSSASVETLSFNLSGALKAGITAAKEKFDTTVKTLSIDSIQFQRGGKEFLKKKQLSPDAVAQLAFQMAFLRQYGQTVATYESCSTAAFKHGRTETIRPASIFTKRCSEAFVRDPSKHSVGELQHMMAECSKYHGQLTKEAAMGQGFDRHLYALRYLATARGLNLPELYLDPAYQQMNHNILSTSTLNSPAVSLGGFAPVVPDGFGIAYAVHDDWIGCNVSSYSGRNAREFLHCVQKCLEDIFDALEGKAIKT
assay.summary: SUPPLEMENTARY: Inhibition of Carnitine palmitoyltransferase 2
Give IC50 for every item shown.

// query What does the data say about its IC50? Entry: `COc1ccc(Cl)cc1S(=O)(=O)N1COc2c(C)cc(C(=O)Nc3ccc(C(=O)O)cc3)cc21`
// result 2.01 µM

// query What does the data say about its IC50? Entry: `Nc1cncc(-c2nc([C@H]3CCCCN3C(=O)COc3ccccc3)no2)c1`
// result > 100 µM

// query What does the data say about its IC50? Entry: `O=C(COc1ccncc1)N1CCCC[C@@H]1c1nnc(-c2cccc(C(F)(F)F)c2)[nH]1`
// result 41.2 µM

// query What does the data say about its IC50? Entry: `O=C(c1nc([C@H]2CCCCN2C(=O)COc2ccccc2)no1)N1CCOCC1`
// result > 100 µM

// query What does the data say about its IC50? Entry: `COc1ccc(Cl)cc1S(=O)(=O)c1nn(C)c2ccc(C(=O)Nc3ccc(CC(=O)O)cc3)cc12`
// result > 100 µM

// query What does the data say about its IC50? Entry: `COc1ccc2[nH]cc(C(=O)COc3ccncc3)c2c1`
// result > 100 µM

// query What does the data say about its IC50? Entry: `CC(=O)NCc1cccc(-c2n[nH]c([C@H]3CCCCN3C(=O)COc3ccccc3)n2)c1`
// result > 100 µM

// query What does the data say about its IC50? Entry: `O=C(COc1ccccc1)N1CCCC[C@@H]1c1noc(-c2cnc3[nH]cnc3c2)n1`
// result 33.6 µM

// query What does the data say about its IC50? Entry: `Cc1cc(C)cc(S(=O)(=O)c2n[nH]c3ccc(C(=O)Nc4ccc(C(=O)O)cc4)cc23)c1`
// result 4.34 µM

// query What does the data say about its IC50? Entry: `O=C([C@H]1CCCCN1C(=O)COc1ccccc1)N1CCc2ccc([N+](=O)[O-])cc2C1`
// result 2.85 µM

// query What does the data say about its IC50? Entry: `O=C(Nc1ccc(C(=O)O)c(F)c1)c1ccc2c(c1)N(S(=O)(=O)c1cccc(C(F)(F)F)c1)CCC2`
// result 6.45 µM

// query What does the data say about its IC50? Entry: COc1ccc(Cl)cc1[S+]([O-])c1c[nH]c2ccc(C(=O)Nc3ccccc3)cc12 (stereo unspecified)
// result > 100 µM

// query What does the data say about its IC50? Entry: `O=C([C@H]1CCCCN1C(=O)COc1ccccc1)N1CCN(c2ccccn2)CC1`
// result 3.35 µM

// query What does the data say about its IC50? Entry: `COc1ccc(Cl)cc1CN1C(=O)C(C)(C)c2ccc(C(=O)Nc3ccc(C(=O)O)cc3)cc21`
// result 9.03 µM

// query What does the data say about its IC50? Entry: `CCOC(=O)c1cn2ccc(-c3noc([C@H]4CCCCN4C(=O)COc4ccccc4)n3)cc2n1`
// result > 100 µM

// query What does the data say about its IC50? Entry: `COc1ccc(Cl)cc1S(=O)(=O)c1c[nH]c2ccc(C(=O)Nc3ccc(CC(=O)O)cc3)cc12`
// result > 100 µM

// query What does the data say about its IC50? Entry: `COc1ccc(Cl)cc1-c1csc([C@H]2CCCCN2C(=O)COc2ccccc2)n1`
// result > 100 µM

// query What does the data say about its IC50? Entry: `COc1ccc(Cl)cc1S(=O)(=O)N1CCOc2ccc(C(=O)Nc3ccc(CC(=O)O)cc3)cc21`
// result > 100 µM

// query What does the data say about its IC50? Entry: `O=C1NCc2ccc(-c3n[nH]c([C@H]4CCCCN4C(=O)COc4ccccc4)n3)cc2N1`
// result 44.1 µM

// query What does the data say about its IC50? Entry: `COc1ccc(Cl)cc1S(=O)(=O)c1cn(CCO)c2ccc(C(=O)Nc3ccccc3)cc12`
// result > 100 µM

// query What does the data say about its IC50? Entry: `COc1ccc(Cl)cc1S(=O)(=O)c1cn(CCC(=O)O)c2ccc(C(=O)Nc3ccccc3)cc12`
// result > 100 µM

// query What does the data say about its IC50? Entry: `COc1ccc(Cl)cc1Sc1cn(C)c2ccc(C(=O)Nc3ccc(C(=O)O)cc3)cc12`
// result > 100 µM

// query What does the data say about its IC50? Entry: `COc1ccc(Cl)cc1S(=O)(=O)Nc1cc(C(=O)Nc2ccccc2)ccc1/C=C/C(=O)O`
// result > 100 µM

// query What does the data say about its IC50? Entry: `COc1ccc(Cl)cc1S(=O)(=O)N1CCOc2c(F)cc(C(=O)Nc3ccc(C(=O)O)cc3)cc21`
// result > 100 µM

// query What does the data say about its IC50? Entry: `COc1ccc(Cl)cc1S(=O)(=O)N1COc2c(C)cc(C(=O)Nc3ccc(CC(=O)O)cc3)cc21`
// result > 100 µM

// query What does the data say about its IC50? Entry: `O=C(COc1ccccc1)N1CCCC[C@@H]1c1noc(-c2ccc3[nH]c(=O)c(=O)[nH]c3c2)n1`
// result > 100 µM

// query What does the data say about its IC50? Entry: `CC(=O)Nc1ccc(-c2csc([C@H]3CCCCN3C(=O)COc3ccccc3)n2)cc1`
// result > 100 µM

// query What does the data say about its IC50? Entry: `COc1ccc(Cl)cc1S(=O)(=O)N1CCNc2ccc(C(=O)Nc3ccc(C(=O)O)cc3)cc21`
// result > 100 µM

// query What does the data say about its IC50? Entry: `O=C(COc1ccccc1)N1CCCC[C@@H]1c1nc(-c2ccc(O)cc2)cs1`
// result > 100 µM

// query What does the data say about its IC50? Entry: `COc1ccc(Cl)cc1S(=O)(=O)N1CCOc2c(Cl)cc(C(=O)Nc3ccc(C(=O)O)cc3)cc21`
// result 28.2 µM

// query What does the data say about its IC50? Entry: `COc1ccc(Cl)cc1S(=O)(=O)N1CCOc2c(F)cc(C(=O)Nc3ccc(C(=O)O)c(Cl)c3)cc21`
// result 5.74 µM

// query What does the data say about its IC50? Entry: `COc1ccc(Cl)cc1S(=O)(=O)N1CCOc2c(C)cc(C(=O)Nc3ccc(CC(=O)O)cc3)cc21`
// result > 100 µM

// query What does the data say about its IC50? Entry: `N#Cc1ccc(-c2nc([C@H]3CCCCN3C(=O)COc3ccccc3)no2)cn1`
// result 79.2 µM

// query What does the data say about its IC50? Entry: `CCOc1ccc(C(=O)Nc2ccc(CC(=O)O)cc2)cc1N(CCS(=O)O)S(=O)(=O)c1cc(Cl)ccc1OC`
// result > 100 µM

// query What does the data say about its IC50? Entry: `COc1ccc(Cl)cc1S(=O)(=O)N[C@@H]1CCCN(C(=O)COc2ccccc2)C1`
// result > 100 µM

// query What does the data say about its IC50? Entry: `CCN1C(=O)CC(C)(C)c2ccc(-c3nc([C@H]4CCCCN4C(=O)COc4ccccc4)no3)cc21`
// result > 100 µM
